molecular target: Human Factor XIa (human, UniProt P03951); experiment: enzyme inhibition of FXIa, chromogenic substrate, fit to the tight-binding equation (apparent Ki*)
parameter.measured: Ki (nM)
Write it as a number; the unit nM goes unstated.

Looking up KALI-DY (designed binder) VREVCSEQAEDGHCRAAHPRWYFDVTEGKCAPFYYGGCGGNRNNFDTEEYCAAVCGSA , I found its Ki recorded as 8.2
